Provenance of the data: paper PMC9229919

# assay: Reverse-phase thin-layer chromatographic lipophilicity (RF, RM0)
# Assay type: physicochemical
# condition-set: RP-18 silica; VI = 65%MeOH/30%H2O/5%HCl
Label T when RF, Methanol/Water/Hydrochloric acid (conc.), mobile phase VI is strictly below 0.3; otherwise label F.

Query :: Given the entry Clc1ccc2c(N3CCN(CCC45CC6CC(CC(C6)C4)C5)CC3)ccnc2c1 [Compound 21] , would its reported RF, Methanol/Water/Hydrochloric acid (conc.), mobile phase VI be below 0.3?
Result :: F

Query :: Please determine if Clc1ccc2c(Nc3ccc(NCC45CC6CC(CC(C6)C4)C5)cc3)ccnc2c1 [Compound 17] is below 0.3 in terms of RF, Methanol/Water/Hydrochloric acid (conc.), mobile phase VI.
Result :: F

Query :: Determine whether this compound shows RF, Methanol/Water/Hydrochloric acid (conc.), mobile phase VI lower than 0.3 (ties excluded): Clc1ccc2c(NCCCCN(CCC34CC5CC(CC(C5)C3)C4)CCC34CC5CC(CC(C5)C3)C4)ccnc2c1 [Compound 10]
Result :: T

Query :: Take the compound CC(CCNCC12CC3CC(CC(C3)C1)C2)Nc1ccnc2ccccc12 (stereo not shown) [Compound 15] and say whether its RF, Methanol/Water/Hydrochloric acid (conc.), mobile phase VI is less than 0.3.
Result :: F

Query :: Please let me know if Clc1ccc2c(NCCCCCN(CCC34CC5CC(CC(C5)C3)C4)CCC34CC5CC(CC(C5)C3)C4)ccnc2c1 [Compound 11] shows RF, Methanol/Water/Hydrochloric acid (conc.), mobile phase VI below 0.3.
Result :: T

Query :: Consider the compound Clc1ccc2c(N3CCN(CC45CC6CC(CC(C6)C4)C5)CC3)ccnc2c1 [Compound 20] . Is its RF, Methanol/Water/Hydrochloric acid (conc.), mobile phase VI strictly less than 0.3?
Result :: F

Query :: # TODO verify RF, Methanol/Water/Hydrochloric acid (conc.), mobile phase VI < 0.3 strictly for this compound: CC(CCNCC12CC3CC(CC(C3)C1)C2)Nc1ccnc2cc(Cl)ccc12 (stereo not shown) [Compound 12]
Result :: F

Query :: Threshold test, RF, Methanol/Water/Hydrochloric acid (conc.), mobile phase VI < 0.3: Clc1ccc2c(NCCCN3CCN(CCCNCC45CC6CC(CC(C6)C4)C5)CC3)ccnc2c1 [Compound 22]
Result :: F

Query :: Is it true that RF, Methanol/Water/Hydrochloric acid (conc.), mobile phase VI reported for CC(CCNCC12CC3CC(CC(C3)C1)C2)Nc1ccnc2cc(C(F)(F)F)ccc12 (stereo not shown) [Compound 13] is less than 0.3?
Result :: F

Query :: Determine if Clc1ccc2c(NCCCN3CCN(CCCNCCC45CC6CC(CC(C6)C4)C5)CC3)ccnc2c1 [Compound 23] shows RF, Methanol/Water/Hydrochloric acid (conc.), mobile phase VI strictly lower than 0.3.
Result :: F

###

Task for the reader: assign each of the following compounds its reported RF, Acetone/Water/Hydrochloric acid (conc.), mobile phase IV.
# assay: Reverse-phase thin-layer chromatographic lipophilicity (RF, RM0)
# Type: physicochemical
# condition-set: RP-18 silica; IV = 65%AC/30%H2O/5%HCl
# Description: Chromatographic determination of lipophilicity Merck, Darmstadt, Germany). The mobile phase contained organic modifier (methanol, acetone or dioxane), water and hydrochloric acid. Methanol was varied in the range […] with an increment of 10%. […] before chromatogram development. The solvent developing distance was 4.5 cm. Detection of […] All experiments were performed at ambient temperature (22±2 °C). Retention parameters were calculated as previously described. […]
Write the number on its own, no unit after it.

Query :: Write down RF, Acetone/Water/Hydrochloric acid (conc.), mobile phase IV measured for item FC(F)(F)c1ccc2c(NCCCNCC34CC5CC(CC(C5)C3)C4)ccnc2c1
Result :: 0.54

Query :: Quote RF, Acetone/Water/Hydrochloric acid (conc.), mobile phase IV reported for Clc1ccc2c(N3CCN(CCC45CC6CC(CC(C6)C4)C5)CC3)ccnc2c1 please.
Result :: 0.53

Query :: Give a short answer stating reported RF, Acetone/Water/Hydrochloric acid (conc.), mobile phase IV for CC(CCNCC12CC3CC(CC(C3)C1)C2)Nc1ccnc2cc(Cl)ccc12 (centres unmarked) .
Result :: 0.58

Query :: Look up RF, Acetone/Water/Hydrochloric acid (conc.), mobile phase IV of Clc1ccc2c(NCCCCCCCCNCC34CC5CC(CC(C5)C3)C4)ccnc2c1 and report it.
Result :: 0.49

Query :: State its RF, Acetone/Water/Hydrochloric acid (conc.), mobile phase IV for this compound: CC(CCNCC12CC3CC(CC(C3)C1)C2)Nc1ccnc2cc(C(F)(F)F)ccc12 (centres unmarked)
Result :: 0.52

Query :: Please look at this compound and report its RF, Acetone/Water/Hydrochloric acid (conc.), mobile phase IV: Clc1ccc2c(NCCCCN(CCC34CC5CC(CC(C5)C3)C4)CCC34CC5CC(CC(C5)C3)C4)ccnc2c1
Result :: 0.28

Query :: Give the reported RF, Acetone/Water/Hydrochloric acid (conc.), mobile phase IV for this compound. Clc1ccc2c(NCCCCCN(CCC34CC5CC(CC(C5)C3)C4)CCC34CC5CC(CC(C5)C3)C4)ccnc2c1
Result :: 0.27

Query :: Could you please provide reported RF, Acetone/Water/Hydrochloric acid (conc.), mobile phase IV for Clc1ccc2c(NCCCN3CCN(CCCNCCC45CC6CC(CC(C6)C4)C5)CC3)ccnc2c1 ? Thanks!
Result :: 0.58

Query :: Find the measured RF, Acetone/Water/Hydrochloric acid (conc.), mobile phase IV of Clc1ccc2c(NCCCCCCNCC34CC5CC(CC(C5)C3)C4)ccnc2c1 and report it.
Result :: 0.55

Query :: Report RF, Acetone/Water/Hydrochloric acid (conc.), mobile phase IV for CC(CCNCCC12CC3CC(CC(C3)C1)C2)Nc1ccnc2ccccc12 (centres unmarked)
Result :: 0.54

Query :: State, in one line, measured RF, Acetone/Water/Hydrochloric acid (conc.), mobile phase IV of Clc1ccc2c(NCCCNCC34CC5CC(CC(C5)C3)C4)ccnc2c1
Result :: 0.58

Query :: Please report the measured RF, Acetone/Water/Hydrochloric acid (conc.), mobile phase IV for Clc1ccc2c(N3CCN(CC45CC6CC(CC(C6)C4)C5)CC3)ccnc2c1
Result :: 0.65

Query :: Using known records, supply RF, Acetone/Water/Hydrochloric acid (conc.), mobile phase IV for Clc1ccc2c(Nc3cccc4c(NCCC56CC7CC(CC(C7)C5)C6)cccc34)ccnc2c1
Result :: 0.41

Query :: Annotate the compound CC(CCNCC12CC3CC(CC(C3)C1)C2)Nc1ccnc2ccccc12 (centres unmarked) with its measured RF, Acetone/Water/Hydrochloric acid (conc.), mobile phase IV.
Result :: 0.55

Query :: Please list RF, Acetone/Water/Hydrochloric acid (conc.), mobile phase IV recorded for the compound FC(F)(F)c1ccc2c(NCCNCC34CC5CC(CC(C5)C3)C4)ccnc2c1
Result :: 0.53

Query :: Item Clc1ccc2c(NCCCCNCC34CC5CC(CC(C5)C3)C4)ccnc2c1 : provide RF, Acetone/Water/Hydrochloric acid (conc.), mobile phase IV
Result :: 0.58

Query :: Give the reported value of RF, Acetone/Water/Hydrochloric acid (conc.), mobile phase IV for this record: Clc1ccc2c(NCCNCCC34CC5CC(CC(C5)C3)C4)ccnc2c1
Result :: 0.5

Query :: Consider the compound Clc1ccc2c(Nc3cccc(NCC45CC6CC(CC(C6)C4)C5)c3)ccnc2c1 . State its measured RF, Acetone/Water/Hydrochloric acid (conc.), mobile phase IV.
Result :: 0.5

Query :: Answer with reported RF, Acetone/Water/Hydrochloric acid (conc.), mobile phase IV of Clc1ccc2c(Nc3ccc(NCC45CC6CC(CC(C6)C4)C5)cc3)ccnc2c1
Result :: 0.54

Query :: Input CC(CCNCCC12CC3CC(CC(C3)C1)C2)Nc1ccnc2cc(Cl)ccc12 (centres unmarked) , output reported RF, Acetone/Water/Hydrochloric acid (conc.), mobile phase IV.
Result :: 0.5

Query :: Return RF, Acetone/Water/Hydrochloric acid (conc.), mobile phase IV (reported value) for this compound: Clc1ccc2c(NCCNCC34CC5CC(CC(C5)C3)C4)ccnc2c1
Result :: 0.59

Query :: For the compound Clc1ccc2c(NCCCN3CCN(CCCNCC45CC6CC(CC(C6)C4)C5)CC3)ccnc2c1 , give its reported RF, Acetone/Water/Hydrochloric acid (conc.), mobile phase IV.
Result :: 0.68

Query :: Report RF, Acetone/Water/Hydrochloric acid (conc.), mobile phase IV, nothing else, for this compound: Clc1ccc2c(NCCN(CCC34CC5CC(CC(C5)C3)C4)CCC34CC5CC(CC(C5)C3)C4)ccnc2c1
Result :: 0.28
